In this section, each of the compounds is paired with its reported responders at 20 mg/kg.
Tested on: Candida albicans ATCC10231
method_description: Systemic fungal infection in mice, intragastric administration
Type: in vivo, ICR mice
condition_context: Candida albicans, ATCC10231, po, 120 h, read-out: survival rate of mice, day 5, 20 mg/kg intragastric once daily for 5 days; day 5
property_label: responders at 20 mg/kg

[[record]]
compound = "CC[C@@H](C(C)OC(=O)OC(C)OC(=O)CCCCCCOP(=O)([O-])[O-])n1ncn(-c2ccc(N3CCN(c4ccc(OC[C@@H]5CO[C@@](Cn6cncn6)(c6ccc(F)cc6F)C5)cc4)CC3)cc2)c1=O.[Na+].[Na+] (stereo partly shown)"
value_reported = "80%"

[[record]]
compound = "CC[C@@H](C(C)OC(=O)OCOC(=O)CCCCCCOP(=O)([O-])[O-])n1ncn(-c2ccc(N3CCN(c4ccc(OC[C@@H]5CO[C@@](Cn6cncn6)(c6ccc(F)cc6F)C5)cc4)CC3)cc2)c1=O.[Na+].[Na+] (stereo partly shown)"
value_reported = "80%"

[[record]]
compound = "CC[C@@H]([C@H](C)OC(=O)OCOC(=O)CCCCCOP(=O)([O-])[O-])n1ncn(-c2ccc(N3CCN(c4ccc(OC[C@@H]5CO[C@@](Cn6cncn6)(c6ccc(F)cc6F)C5)cc4)CC3)cc2)c1=O.[Na+].[Na+]"
value_reported = "80%"

[[record]]
compound = "CC[C@@H](C(C)OC(=O)OC(C)OC(=O)CCOP(=O)([O-])[O-])n1ncn(-c2ccc(N3CCN(c4ccc(OC[C@@H]5CO[C@@](Cn6cncn6)(c6ccc(F)cc6F)C5)cc4)CC3)cc2)c1=O.[Na+].[Na+] (stereo partly shown)"
value_reported = "70%"

[[record]]
compound = "CC[C@@H]([C@H](C)O)n1ncn(-c2ccc(N3CCN(c4ccc(OC[C@@H]5CO[C@@](Cn6c[n+](C(C)OC(=O)N(C)c7ncccc7COC(=O)[C@@H](N)CCN)cn6)(c6ccc(F)cc6F)C5)cc4)CC3)cc2)c1=O (stereo partly shown)"
value_reported = "70%"

[[record]]
compound = "CC[C@@H]([C@H](C)OC(=O)[C@@H](N)CO)n1ncn(-c2ccc(N3CCN(c4ccc(OC[C@@H]5CO[C@@](Cn6c[n+](C(C)OC(=O)N(C)c7ncccc7COC(=O)[C@@H](N)CCCN)cn6)(c6ccc(F)cc6F)C5)cc4)CC3)cc2)c1=O (stereo partly shown)"
value_reported = "70%"

[[record]]
compound = "CC[C@@H]([C@H](C)OC(=O)OC(C)OC(=O)CCCCCOP(=O)([O-])[O-])n1ncn(-c2ccc(N3CCN(c4ccc(OC[C@@H]5CO[C@@](Cn6cncn6)(c6ccc(F)cc6F)C5)cc4)CC3)cc2)c1=O.[Na+].[Na+] (stereo partly shown)"
value_reported = "80%"


----------
method_description: In vitro metabolic stability in rat intestine S9
Assay type: in vitro ADME
condition_context: rat, pH 7.4; 37° C., 10 μM compound, 1 mg/mL S9, NADPH regeneration system; read-out: Rat intestine S9 T1/2
Recorded half-life at 10 µM, one value per entry.
property_label: half-life at 10 µM (min)

[[record]]
compound = "CC[C@@H]([C@H](C)OC(=O)OCOC(=O)CCCCCOP(=O)([O-])[O-])n1ncn(-c2ccc(N3CCN(c4ccc(OC[C@@H]5CO[C@@](Cn6cncn6)(c6ccc(F)cc6F)C5)cc4)CC3)cc2)c1=O.[Na+].[Na+] [ST0073]"
value_reported = 16

[[record]]
compound = "CC[C@@H](C(C)OC(=O)OC(C)OC(=O)CCOP(=O)([O-])[O-])n1ncn(-c2ccc(N3CCN(c4ccc(OC[C@@H]5CO[C@@](Cn6cncn6)(c6ccc(F)cc6F)C5)cc4)CC3)cc2)c1=O.[Na+].[Na+] (some centres unmarked) [ST0066]"
value_reported = 36.6


----------
method_description: In vitro metabolic stability in human plasma
Type: in vitro ADME
condition_context: human, plasma, 37° C., 10 μM compound, read-out: Human plasma T1/2
half-life at 10 µM listing for selected molecules.
property_label: half-life at 10 µM (min)

[[record]]
molecule = "CC[C@@H](C(C)OC(=O)OC(C)OC(=O)CCCCCOS(=O)(=O)[O-])n1ncn(-c2ccc(N3CCN(c4ccc(OC[C@@H]5CO[C@@](Cn6cncn6)(c6ccc(F)cc6F)C5)cc4)CC3)cc2)c1=O.[Na+] (stereo partly drawn) [ST0079]"
value_reported = 2.56

[[record]]
molecule = "CC[C@@H](C(C)OC(=O)OC(C)OC(=O)CCCCCCOP(=O)([O-])[O-])n1ncn(-c2ccc(N3CCN(c4ccc(OC[C@@H]5CO[C@@](Cn6cncn6)(c6ccc(F)cc6F)C5)cc4)CC3)cc2)c1=O.[Na+].[Na+] (stereo partly drawn) [ST0070]"
value_reported = 0.95

[[record]]
molecule = "CC[C@@H]([C@H](C)O)n1ncn(-c2ccc(N3CCN(c4ccc(OC[C@@H]5CO[C@@](Cn6c[n+](C(C)OC(=O)N(C)c7ncccc7COC(=O)[C@@H](N)Cc7ccc(O)cc7)cn6)(c6ccc(F)cc6F)C5)cc4)CC3)cc2)c1=O (stereo partly drawn) [ST0027]"
value_reported = 20.4

[[record]]
molecule = "CC[C@@H](C(C)OC(=O)OC(C)OC(=O)CCCOS(=O)(=O)[O-])n1ncn(-c2ccc(N3CCN(c4ccc(OC[C@@H]5CO[C@@](Cn6cncn6)(c6ccc(F)cc6F)C5)cc4)CC3)cc2)c1=O.[Na+] (stereo partly drawn) [ST0077]"
value_reported = 1.97

[[record]]
molecule = "CC[C@@H]([C@H](C)O)n1ncn(-c2ccc(N3CCN(c4ccc(OC[C@@H]5CO[C@@](Cn6c[n+](C(C)OC(=O)N(C)c7ncccc7COC(=O)[C@@H](N)CC(N)=O)cn6)(c6ccc(F)cc6F)C5)cc4)CC3)cc2)c1=O (stereo partly drawn) [ST0023]"
value_reported = 0.94

[[record]]
molecule = "CC[C@@H]([C@H](C)O)n1ncn(-c2ccc(N3CCN(c4ccc(OC[C@@H]5CO[C@@](Cn6c[n+](C(C)OC(=O)N(C)c7ncccc7COC(=O)CN(C)C)cn6)(c6ccc(F)cc6F)C5)cc4)CC3)cc2)c1=O (stereo partly drawn) [ST0045]"
value_reported = 15.2

[[record]]
molecule = "CC[C@@H](C(C)OC(=O)OCOC(=O)CCCCCCOP(=O)([O-])[O-])n1ncn(-c2ccc(N3CCN(c4ccc(OC[C@@H]5CO[C@@](Cn6cncn6)(c6ccc(F)cc6F)C5)cc4)CC3)cc2)c1=O.[Na+].[Na+] (stereo partly drawn) [ST0074]"
value_reported = 0.86

[[record]]
molecule = "CC[C@@H]([C@H](C)O)n1ncn(-c2ccc(N3CCN(c4ccc(OC[C@@H]5CO[C@@](Cn6c[n+](C(C)OC(=O)N(C)c7ncccc7COC(=O)[C@@H](N)[C@@H](C)O)cn6)(c6ccc(F)cc6F)C5)cc4)CC3)cc2)c1=O (stereo partly drawn) [ST0026]"
value_reported = 1.03

[[record]]
molecule = "CC[C@@H](C(C)OC(=O)OC(C)OC(=O)CCOP(=O)([O-])[O-])n1ncn(-c2ccc(N3CCN(c4ccc(OC[C@@H]5CO[C@@](Cn6cncn6)(c6ccc(F)cc6F)C5)cc4)CC3)cc2)c1=O.[Na+].[Na+] (stereo partly drawn) [ST0066]"
value_reported = 11.3


----------
Test system: Candida albicans ATCC10231
method_description: Systemic fungal infection in mice, intragastric administration
Format: in vivo, ICR mice
condition_context: Candida albicans, ATCC10231, po, 48 h, read-out: survival rate of mice, day 2, 20 mg/kg intragastric once daily for 5 days; day 2
Procedure: ICR mice, weighing 18-22 g, male, provided by Hubei Experimental Animal Center. Prior to the experiment, a small amount of Candida albicans was picked from an SDA medium kept at 4° C. with an inoculation loop and inoculated into 1 ml YPD culture medium, cultured at 30° C. with 200 rpm shaking and activated for 16 hours, so that the fungus was in the late stage of exponential growth. […]
property_label: responders at 20 mg/kg (%)

[[record]]
compound = "CC[C@@H]([C@H](C)OC(=O)[C@@H](N)CO)n1ncn(-c2ccc(N3CCN(c4ccc(OC[C@@H]5CO[C@@](Cn6c[n+](C(C)OC(=O)N(C)c7ncccc7COC(=O)[C@@H](N)CCCN)cn6)(c6ccc(F)cc6F)C5)cc4)CC3)cc2)c1=O (some centres unmarked)"
value_reported = 100

[[record]]
compound = "CC[C@@H]([C@H](C)O)n1ncn(-c2ccc(N3CCN(c4ccc(OC[C@@H]5CO[C@@](Cn6c[n+](C(C)OC(=O)N(C)c7ncccc7COC(=O)[C@@H](N)CCCCN)cn6)(c6ccc(F)cc6F)C5)cc4)CC3)cc2)c1=O (some centres unmarked)"
value_reported = 90


----------
method_description: Determination of solubility in deionized water (HPLC, external standard)
condition_context: 25 °C, water, thermodynamic from solid
Overview of recorded solubility at 30 min for various compounds
property_label: solubility at 30 min

[[record]]
compound = "CC[C@@H]([C@H](C)OC(=O)OC(C)OC(=O)CCCCCOP(=O)([O-])[O-])n1ncn(-c2ccc(N3CCN(c4ccc(OC[C@@H]5CO[C@@](Cn6cncn6)(c6ccc(F)cc6F)C5)cc4)CC3)cc2)c1=O.[Na+].[Na+] (stereo partly drawn)"
property_label = "solubility at 30 min"
value_reported = "> 50 mg/mL"

[[record]]
compound = "CC[C@@H](C(C)OC(=O)OC(C)OC(=O)CCCOS(=O)(=O)[O-])n1ncn(-c2ccc(N3CCN(c4ccc(OC[C@@H]5CO[C@@](Cn6cncn6)(c6ccc(F)cc6F)C5)cc4)CC3)cc2)c1=O.[Na+] (stereo partly drawn)"
property_label = "solubility at 30 min"
value_reported = "> 50 mg/mL"

[[record]]
compound = "CC[C@@H](C(C)OC(=O)OC(C)OC(=O)CCCCCOS(=O)(=O)[O-])n1ncn(-c2ccc(N3CCN(c4ccc(OC[C@@H]5CO[C@@](Cn6cncn6)(c6ccc(F)cc6F)C5)cc4)CC3)cc2)c1=O.[Na+] (stereo partly drawn)"
property_label = "solubility at 30 min"
value_reported = "> 50 mg/mL"

[[record]]
compound = "CC[C@@H]([C@H](C)O)n1ncn(-c2ccc(N3CCN(c4ccc(OC[C@@H]5CO[C@@](Cn6c[n+](C(C)OC(=O)N(C)c7ncccc7CN)cn6)(c6ccc(F)cc6F)C5)cc4)CC3)cc2)c1=O (stereo partly drawn)"
property_label = "solubility at 30 min"
value_reported = "30.5 mg/mL"

[[record]]
compound = "CC[C@@H]([C@H](C)OC(=O)OCOC(=O)CCCCCOP(=O)([O-])[O-])n1ncn(-c2ccc(N3CCN(c4ccc(OC[C@@H]5CO[C@@](Cn6cncn6)(c6ccc(F)cc6F)C5)cc4)CC3)cc2)c1=O.[Na+].[Na+]"
property_label = "solubility at 30 min"
value_reported = "> 50 mg/mL"

[[record]]
compound = "CC[C@@H]([C@H](C)O)n1ncn(-c2ccc(N3CCN(c4ccc(OC[C@@H]5CO[C@@](Cn6c[n+](C(C)OC(=O)N(C)c7ncccc7COC(=O)[C@@H](N)Cc7ccc(O)cc7)cn6)(c6ccc(F)cc6F)C5)cc4)CC3)cc2)c1=O (stereo partly drawn)"
property_label = "solubility at 30 min"
value_reported = "> 50 mg/mL"

[[record]]
compound = "CC[C@@H]([C@H](C)O)n1ncn(-c2ccc(N3CCN(c4ccc(OC[C@@H]5CO[C@@](Cn6cncn6)(c6ccc(F)cc6F)C5)cc4)CC3)cc2)c1=O"
property_label = "solubility at 30 min"
value_reported = "< 1 mg/mL"

[[record]]
compound = "CC[C@@H]([C@H](C)O)n1ncn(-c2ccc(N3CCN(c4ccc(OC[C@@H]5CO[C@@](Cn6c[n+](C(C)OC(=O)N(C)c7ncccc7COC(=O)[C@@H](N)CCNC)cn6)(c6ccc(F)cc6F)C5)cc4)CC3)cc2)c1=O (stereo partly drawn)"
property_label = "solubility at 30 min"
value_reported = "> 50 mg/mL"

[[record]]
compound = "CC[C@@H]([C@H](C)O)n1ncn(-c2ccc(N3CCN(c4ccc(OC[C@@H]5CO[C@@](Cn6c[n+](C(C)OC(=O)SC[C@H](N)C(=O)O)cn6)(c6ccc(F)cc6F)C5)cc4)CC3)cc2)c1=O (stereo partly drawn)"
property_label = "solubility at 30 min"
value_reported = "21.8 mg/mL"


All values here come from patent US10517867B2.
